Tested on: OVCAR3 cells
Assay: MTT proliferation assay, OVCAR3;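 note: compound given as an 8- or 10-point series, one day after plating, with exposure covering roughly 3-4 cell doublings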
Assay type: cell-based
Settings: 5 days compound exposure, 1:3 serial dilution starting at 10 μM
*1 amine or outer side, *2 acyl side, *3 side chain or, on linkers, in order; H or OH if unused. Where a SMILES comes first, the peptide text is derived from it. Bridges are numbered along the chain shown (N, C = ends). [ ]: non-standard residue; d: D form. The star is where a group is joined. X74 = C[C@@H]1CN(c2ccc(-c3ccc(Cl)cc3C[C@@H](C(=O)[*:2])N(C)[*:1])cc2)C[C@@H](C)O1; NMePhe(2-(4-MorPh),5-Cl) = CN[C@@H](Cc1cc(Cl)ccc1-c1ccc(N2CCOCC2)cc1)C(=O)O; X128 = CC(C)C(=O)N1C2C=C(c3ccc(F)cc3C[C@@H](C(=O)[*:2])N(C)[*:1])CC1COC2; X49 = CN1CCc2ccc(-c3ccc(Cl)cc3C[C@@H](C(=O)[*:2])N(C)[*:1])cc2C1; X87 = CN([C@@H](Cc1cc(F)ccc1-c1ccc(N2CCOCC2)cc1)C(=O)[*:2])[*:1]; X172 = CC(=O)N1CC=C(c2ccc(F)cc2C[C@@H](C(=O)[*:2])N(C)[*:1])CC1; X208 = CN([C@@H](Cc1cc(F)ccc1-c1cnn(CC(F)F)c1)C(=O)[*:2])[*:1]; NMehhhLys(Me) = CN([C@@H](CCCCCCCN(C)[*:3])C(=O)[*:2])[*:1]; X131 = CN([C@@H](Cc1cc(F)cnc1-c1cnn(C)c1)C(=O)[*:2])[*:1]; X204 = CN([C@@H](Cc1cc(F)ccc1-c1ccnnc1)C(=O)[*:2])[*:1]; NMe(hhhLys) = CN([C@@H](CCCCCCCN[*:3])C(=O)[*:2])[*:1]; Cyclobutanecarbonyl(1-CF3) = O=C(C1(C(F)(F)F)CCC1)*; cBuCO(3,3-F2-1-CF3) = O=C(C1(C(F)(F)F)CC(F)(F)C1)*; Pro(trans-4-F) = O=C(O)[C@@H]1C[C@@H](F)CN1; Gly(cPr) = N[C@H](C(=O)O)C1CC1; X77 = CC(F)(C(=O)*)C(F)(F)F
Measured GI50, listed per entry.

compound: CC(C)C[C@@H]1NC(=O)[C@@H](N(C)C(=O)[C@@H](NC(=O)[C@@H]2C[C@@H](F)CN2C(=O)C2(C(F)(F)F)CC(F)(F)C2)C2CC2)CCCCCCCNC(=O)[C@H](Cc2cc(Cl)ccc2-c2ccc(N3CCOCC3)cc2)N(C)C1=O [Example 333] ({cBuCO(3,3-F2-1-CF3)}-[Pro(trans-4-F)][Gly(cPr)][NMe(hhhLys)]L[NMePhe(2-(4-MorPh),5-Cl)]; lactam 3-C)
GI50 / nM: 10

compound: CC(C)C[C@@H]1NC(=O)[C@@H](N(C)C(=O)[C@@H](NC(=O)[C@@H]2C[C@@H](F)CN2C(=O)C2(C(F)(F)F)CC(F)(F)C2)C2CC2)CCCCCCCNC(=O)[C@H](Cc2cc(F)ccc2-c2ccc(N3CCOCC3)cc2)N(C)C1=O [Example 334] ({cBuCO(3,3-F2-1-CF3)}-[Pro(trans-4-F)][Gly(cPr)][NMe(hhhLys)]L[X87]; lactam 3-C)
GI50 / nM: 10

compound: CC(C)C[C@@H]1NC(=O)[C@@H](N(C)C(=O)[C@@H](NC(=O)[C@@H]2C[C@@H](F)CN2C(=O)C2(C(F)(F)F)CC(F)(F)C2)C2CC2)CC=CCCCCN(C)C(=O)[C@H](Cc2cc(F)ccc2-c2cnn(C3CCOC3)c2)N(C)C1=O (stereo partly drawn) [Example 85]
GI50 / nM: 20

compound: CC(C)C[C@@H]1NC(=O)[C@@H](N(C)C(=O)[C@@H](NC(=O)[C@@H]2C[C@@H](F)CN2C(=O)C2(C(F)(F)F)CC(F)(F)C2)C2CC2)CCCCCCCN(C)C(=O)[C@H](Cc2cc(F)ccc2-c2ccnnc2)N(C)C1=O [Example 279] ({cBuCO(3,3-F2-1-CF3)}-[Pro(trans-4-F)][Gly(cPr)][NMehhhLys(Me)]L[X204]; lactam 3-C)
GI50 / nM: 90

compound: CC(C)C[C@@H]1NC(=O)[C@@H](N(C)C(=O)[C@@H](NC(=O)[C@@H]2C[C@@H](F)CN2C(=O)C2(C(F)(F)F)CC(F)(F)C2)C2CC2)CCCCCCCN(C)C(=O)[C@H](Cc2cc(Cl)ccc2-c2ccc3c(c2)CN(C)CC3)N(C)C1=O [Example 406] ({cBuCO(3,3-F2-1-CF3)}-[Pro(trans-4-F)][Gly(cPr)][NMehhhLys(Me)]L[X49]; lactam 3-C)
GI50 / nM: 40

compound: CC(C)C[C@@H]1NC(=O)[C@@H](N(C)C(=O)[C@@H](NC(=O)[C@@H]2C[C@@H](F)CN2C(=O)C2(C(F)(F)F)CCC2)C2CC2)CCCCCCCN(C)C(=O)[C@H](Cc2cc(F)ccc2-c2cnn(CC(F)F)c2)N(C)C1=O [Example 92] ({Cyclobutanecarbonyl(1-CF3)}-[Pro(trans-4-F)][Gly(cPr)][NMehhhLys(Me)]L[X208]; lactam 3-C)
GI50 / nM: 10

compound: CC(C)C[C@@H]1NC(=O)[C@@H](N(C)C(=O)[C@@H](NC(=O)[C@@H]2C[C@@H](F)CN2C(=O)C2(C(F)(F)F)CC(F)(F)C2)C2CC2)CCCCCCCN(C)C(=O)[C@H](Cc2cc(Cl)ccc2-c2ccc(N3C[C@@H](C)O[C@H](C)C3)cc2)N(C)C1=O [Example 389] ({cBuCO(3,3-F2-1-CF3)}-[Pro(trans-4-F)][Gly(cPr)][NMehhhLys(Me)]L[X74]; lactam 3-C)
GI50 / nM: 10

compound: CC(C)C[C@@H]1NC(=O)[C@@H](N(C)C(=O)[C@@H](NC(=O)[C@@H]2C[C@@H](F)CN2C(=O)C2(C(F)(F)F)CC(F)(F)C2)C2CC2)CCCCCCCN(C)C(=O)[C@H](Cc2cc(F)ccc2C2=CC3COCC(C2)N3C(=O)C(C)C)N(C)C1=O (stereo partly drawn) [Example 151] ({cBuCO(3,3-F2-1-CF3)}-[Pro(trans-4-F)][Gly(cPr)][NMehhhLys(Me)]L[X128]; lactam 3-C)
GI50 / nM: 10

compound: CC(=O)N1CC=C(c2ccc(F)cc2C[C@H]2C(=O)NCCCCCCC[C@H](N(C)C(=O)[C@@H](NC(=O)[C@@H]3C[C@@H](F)CN3C(=O)C3(C(F)(F)F)CC(F)(F)C3)C3CC3)C(=O)N[C@@H](CC(C)C)C(=O)N2C)CC1 [Example 217] ({cBuCO(3,3-F2-1-CF3)}-[Pro(trans-4-F)][Gly(cPr)][NMe(hhhLys)]L[X172]; lactam 3-C)
GI50 / nM: 20

compound: CC(C)C[C@@H]1NC(=O)[C@@H](N(C)C(=O)[C@@H](NC(=O)[C@@H]2C[C@@H](F)CN2C(=O)C(C)(F)C(F)(F)F)C2CC2)CCCCCCCN(C)C(=O)[C@H](Cc2cc(Cl)ccc2-c2ccc(N3CCOCC3)cc2)N(C)C1=O (stereo partly drawn) [Example 377] (X77-[Pro(trans-4-F)][Gly(cPr)][NMehhhLys(Me)]L[NMePhe(2-(4-MorPh),5-Cl)]; lactam 3-C)
GI50 / nM: 10

compound: CC(C)C[C@@H]1NC(=O)[C@@H](N(C)C(=O)[C@@H](NC(=O)[C@@H]2C[C@@H](F)CN2C(=O)C2(C(F)(F)F)CC(F)(F)C2)C2CC2)CCCCCCCN(C)C(=O)[C@H](Cc2cc(F)cnc2-c2cnn(C)c2)N(C)C1=O [Example 244] ({cBuCO(3,3-F2-1-CF3)}-[Pro(trans-4-F)][Gly(cPr)][NMehhhLys(Me)]L[X131]; lactam 3-C)
GI50 / nM: 40

compound: CCN(C(=O)[C@@H](NC(=O)[C@@H]1C[C@@H](F)CN1C(=O)[C@@]1(C(F)(F)F)CCCCO1)C1CC1)[C@H]1CCCCCCCN(C)C(=O)[C@H](Cc2cc(Cl)cnc2OC2CC2)N(C)C(=O)[C@H](CC(C)C)NC1=O [Example 221]
GI50 / nM: 30
